Assay: Example 6: noncompartmental plasma pharmacokinetics after third dose of the Combination (2 g meropenem/2 g Compound I q8h)
Details: both, human, plasma, intravenous, CL, Compound I 2 g q8h, 1.5-hour BAL Sampling Group
Value Type: clearance (mL/min)
Dear colleague, please return just the value in mL/min, with no unit written.

Tell me clearance reported for O=C(O)C[C@@H]1CC[C@H](NC(=O)Cc2cccs2)B(O)O1
188

###

Test: Example 6: noncompartmental plasma pharmacokinetics after third dose of the Combination (2 g meropenem/2 g Compound I q8h)
Conditions: both, human, plasma, intravenous, AUC0-8, Compound I 2 g q8h, 4-hour BAL Sampling Group
Description: A total of twenty-five (n=25) male and female subjects who met the study entry criteria and completed all phases of the pharmacokinetic study were included in this pharmacokinetic analysis. […] Peak plasma concentration (Cmax) and time to Cmax (Tmax) were read from the observed plasma concentration-time profile after the start of the intravenous infusion of the third Combination dose. […] The elimination rate constant (β) was determined by nonlinear least-squares regression. […]
Value Type: AUC(0-t)
Your answer should be a number followed by the unit of measure.

Answer with the recorded AUC(0-t) for the molecule listed here: O=C(O)C[C@@H]1CC[C@H](NC(=O)Cc2cccs2)B(O)O1 [Compound I]
214 µg·h/mL
